Assay: Evaluation of artificial lipid membrane binding using a Biacore S51 system
Details: compound 50 μM, DOPA liposomes on Sensor Chip L1, 37° C., PBS/5% DMSO (pH 7.4 or pH 6.0)
ASSAY METRIC: Binding Level (RU)
Field format: number, assumed RU, no unit text.

structure_as_smiles=CC(C)(O)c1nc(-c2ccc(=O)n(-c3c(F)cccc3F)c2)c(-c2ccc(F)cc2F)o1 assay_value=18.3
structure_as_smiles=CC(C)(O)[C@H](O)c1nc(-c2ccc(=O)n(-c3c(F)cccc3F)c2)c(-c2ccc(F)cc2F)o1 assay_value=22.5
structure_as_smiles=CC(C)(O)Cc1nc(-c2ccc(F)cc2F)c(-c2ccc(=O)n(-c3c(F)cccc3F)c2)o1 assay_value=15.5
structure_as_smiles=CC(C)(O)[C@@H](O)c1nc(-c2ccc(F)cc2F)c(-c2ccc(=O)n(-c3c(F)cccc3F)c2)o1 assay_value=12.8
structure_as_smiles=CC(C)(O)c1nc(-c2ccc(F)cc2F)c(-c2ccc(=O)n(-c3c(F)cccc3F)c2)o1 assay_value=15.5
structure_as_smiles=CC(C)(O)[C@@H](O)c1nc(-c2ccc(=O)n(-c3c(F)cccc3F)c2)c(-c2ccc(F)cc2F)o1 assay_value=21.0
structure_as_smiles=CC(C)(O)[C@H](O)c1nc(-c2ccc(F)cc2F)c(-c2ccc(=O)n(-c3c(F)cccc3F)c2)o1 assay_value=14.7
structure_as_smiles=C[C@](O)(CO)c1nc(-c2ccc(=O)n(-c3c(F)cccc3F)c2)c(-c2ccc(F)cc2F)o1 assay_value=22.2

Sample C[C@@](O)(CO)c1nc(-c2ccc(=O)n(-c3c(F)cccc3F)c2)c(-c2ccc(F)cc2F)o1 ; Binding Level (RU) observed: 19.6

Record summary for O=c1ccc(-c2nc(C(O)(CO)CO)oc2-c2ccc(F)cc2F)cn1-c1c(F)cccc1F : reported Binding Level (RU) = 11.1

Lab note: O=c1ccc(-c2oc(C(O)(CO)CO)nc2-c2ccc(F)cc2F)cn1-c1c(F)cccc1F gave Binding Level (RU) of 8.7

Lab book: Binding Level (RU) of C[C@@](O)(CO)c1nc(-c2ccc(F)cc2F)c(-c2ccc(=O)n(-c3c(F)cccc3F)c2)o1 noted as 11.1
